# assayProtocol: yeast display, Sf9 membrane polyspecificity reagent, FACS + sequencing; frameworks hold sequencing errors
readoutKind: polyreactivity (PSR sort gate)

Some entries whose results are on file:
biosequence	polyreactivity (PSR sort gate)
QVQLVESGGGLVQAGGSLRLSCSASGRTFNKYAMGWYRQAPGKERELVAAISRSGGSTYYADSVKGRFTISRDNAKNTVYLQMNSLKPEDTAVYYCNAAYFGQHVGTGFDYWGQGTQVTVSS	high polyreactivity
QVQLVESGGGIVQAGGSLRLSCAASGSTFRGNDMGWYRQAPGKERELVASIDWSGGSTYYADSVKGRFTISRDNAKNTVYLQMNSLKPEDTAVYYCAADTSYWYDYYIDYVGYYYWGQGTQVTVAS	high polyreactivity
QVHLVESGGGLVQAGGSLRLSCAASGITFYGNTMGWYRQTPGKERELVARISSGGSTNYAESVKGRFTISRVNAKNTVYLQMNSLKPEDTAVSYCAVKQYGFIWSGYGYDYWGQGSQVTVSS	high polyreactivity
QVQLVESGGGLVQAGGSLRLSCAASGSIFNYYTMGWYRQAPGKERELVAAISYRGGRTYYADSVKGRFTISRDNAKNTVYLQMNSLKPEDTAVYYCNAVTRIYEVDYWGQGTQVTVSS	high polyreactivity
QVQLVESGGGLVQAGGSLRLSCAASGFTFRYYTMGWYRQAPGKERELVAAITWSGGSTYYADSVKGRFTISRDNAKNTVYLQMNSLKPEDTAVYYCNAYPSYVSFDYWGQGTQVTVSS	high polyreactivity

Given item QVQLVESGGGLVQAGGSLRLSCAASGSIFIPNAMGWYRQAPGKERELVAAISLSDTTTYYADSVKGRFTISRDNAKNTVYLQMNSLKPEDTAVYYCNKLTYGRVWDHHYDYWGQGTQVTVSS , the value recorded as its polyreactivity (PSR sort gate) is low polyreactivity

Given item QVQLVESGGGLVQAGGSLRLSCAASGSTFGHNAMGWYRQAPGKERELVAAIDSGDGTTYADSVKGRFTISRDNAKNTVYFQMNSLKPEDTAVYYCAATTDRAEDDDNIGGYWGQGTQVTVSS , the value recorded as its polyreactivity (PSR sort gate) is low polyreactivity
